target: SoxS (Escherichia coli, UniProt P0A9E2); construct: made in house; host or cells: E. coli; assay: Inhibition of SoxS-DNA binding, cell-free chemiluminescence assay; parameters: species or system E. coli
Sequence (P0A9E2 whole entry): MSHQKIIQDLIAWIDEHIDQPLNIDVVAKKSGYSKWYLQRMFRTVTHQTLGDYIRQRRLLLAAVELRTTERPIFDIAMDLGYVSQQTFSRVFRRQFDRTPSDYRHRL
pIC50: −log10 of the molar value.
Experimental readout: pIC50

Use the examples below as a reference point.
Entry N#Cc1ccc2nc(-c3ccc(NC(=O)c4ccc(N5CCOCC5)nc4)cc3)n(O)c2c1 [Compound P] : reported pIC50 = ?
< 4.30

Entry CSc1ccc(/C=C/C(=O)Nc2ccc(-c3nc4ccc(C#N)cc4n3O)cc2)cn1 [Compound H] : reported pIC50 = ?
< 4.30

Entry CSc1ccc(/C=C/C(=O)Nc2ccc(-c3nc4ccc([N+](=O)[O-])cc4n3O)cc2)cc1 [C] : reported pIC50 = ?
4.30 to 4.60

Entry N#Cc1ccc2nc(-c3ccc(NC(=O)c4ccc(-n5cccn5)nc4)cc3)n(O)c2c1 [Compound M] : reported pIC50 = ?
< 4.30

Continue with the compound presented below.
Entry CC(=O)c1ccc(/C=C/C(=O)Nc2ccc(-c3nc4c(CC(=O)O)cc([N+](=O)[O-])cc4n3O)cc2)cc1 [Compound J] : reported pIC50 = ?
> 5.00

---

biological target: UniProt P28808; experiment: biochemical
pIC50: −log10 of the molar value.
The entries below are paired with their reported pIC50.

Use the examples below as a reference point.
Entry "CSc1ccc(/C=C/C(=O)Nc2ccc(-c3nc4ccc(C#N)cc4n3O)cc2)cn1" : reported pIC50 = ?
4.30 to 4.60

Entry "CC(=O)c1ccc(/C=C/C(=O)Nc2ccc(-c3nc4ccc(C#N)cc4n3O)cc2)cn1" : reported pIC50 = ?
4.30 to 4.60

Entry "O=C(/C=C/c1ccc(F)cc1)Nc1ccc(-c2nc3ccccc3n2O)cc1" : reported pIC50 = ?
< 4.30

Entry "N#Cc1ccc2nc(-c3ccc(NC(=O)/C=C/c4ccc(C(O)(O)C(F)(F)F)cc4)cc3)n(O)c2c1" : reported pIC50 = ?
< 4.30

Entry "N#Cc1ccc2nc(-c3ccc(NC(=O)c4ccc(-n5cccn5)nc4)cc3)n(O)c2c1" : reported pIC50 = ?
< 4.30

Entry "CN(C)c1ccc(C(=O)Nc2ccc(-c3nc4ccc([N+](=O)[O-])cc4n3O)cc2)cn1" : reported pIC50 = ?
4.60 to 5.00

Entry "CC(=O)c1ccc(/C=C/C(=O)Nc2ccc(-c3nc4c(CC(=O)O)cc([N+](=O)[O-])cc4n3O)cc2)cc1" : reported pIC50 = ?
> 5.00

Entry "O=C(/C=C/c1ccc(F)cc1)Nc1ccc(-c2nc3ccc(C(=O)O)cc3n2O)cc1" : reported pIC50 = ?
4.30 to 4.60

Entry "CSc1ccc(/C=C/C(=O)Nc2ccc(-c3nc4ccc([N+](=O)[O-])cc4n3O)cc2)cn1" : reported pIC50 = ?
4.60 to 5.00

Entry "O=C(Nc1ccc(-c2nc3ccc([N+](=O)[O-])cc3n2O)cc1)c1ccc(C(O)(O)C(F)(F)F)cc1" : reported pIC50 = ?
< 4.30

More entries:
Entry "O=C(/C=C/c1ccc(F)cc1)Nc1ccc(-c2nc3ccc(C(F)(F)F)cc3n2O)cc1" : reported pIC50 = ?
< 4.30

Entry "CN(C)c1ccc(/C=C/C(=O)Nc2ccc(-c3nc4ccc([N+](=O)[O-])cc4n3O)cc2)cn1" : reported pIC50 = ?
< 4.30

Entry "O=C(O)Cc1cc([N+](=O)[O-])cc2c1nc(-c1ccc(NC(=O)/C=C/c3ccc(F)cc3)cc1)n2O" : reported pIC50 = ?
4.60 to 5.00

---

The entries below are paired with their reported pIC50.
target: LcrF (VirF) (Yersinia pestis, UniProt P28808); assay: biochemical
Sequence (P28808 whole entry, looked up): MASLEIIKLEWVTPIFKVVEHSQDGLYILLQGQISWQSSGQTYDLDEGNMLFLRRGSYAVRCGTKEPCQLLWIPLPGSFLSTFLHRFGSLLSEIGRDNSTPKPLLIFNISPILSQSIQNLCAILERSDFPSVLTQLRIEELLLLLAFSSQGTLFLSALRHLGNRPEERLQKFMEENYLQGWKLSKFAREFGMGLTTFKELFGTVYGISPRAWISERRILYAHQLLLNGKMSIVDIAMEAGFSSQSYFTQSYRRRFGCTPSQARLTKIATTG
pIC50: −log10 of the molar value.

Entry N#Cc1ccc2nc(-c3ccc(NC(=O)c4ccc(N5CCOCC5)nc4)cc3)n(O)c2c1 [Compound P] : reported pIC50 = ?
< 4.30

Entry CC(=O)c1ccc(/C=C/C(=O)Nc2ccc(-c3nc4c(CC(=O)O)cc([N+](=O)[O-])cc4n3O)cc2)cn1 [Compound V] : reported pIC50 = ?
> 5.00

Entry CC(=O)c1ccc(C(=O)Nc2ccc(-c3nc4c(CC(=O)O)cc([N+](=O)[O-])cc4n3O)cc2)cc1 [Compound R] : reported pIC50 = ?
4.30 to 4.60

Entry CSc1ccc(/C=C/C(=O)Nc2ccc(-c3nc4ccc([N+](=O)[O-])cc4n3O)cc2)cc1 [C] : reported pIC50 = ?
4.60 to 5.00
